Biological target: human recombinant A3AR (expressed in HEK-293 cells) (Homo sapiens)
Construct: host or cells: HEK-293 cells
Sequence (P0DMS8 whole entry): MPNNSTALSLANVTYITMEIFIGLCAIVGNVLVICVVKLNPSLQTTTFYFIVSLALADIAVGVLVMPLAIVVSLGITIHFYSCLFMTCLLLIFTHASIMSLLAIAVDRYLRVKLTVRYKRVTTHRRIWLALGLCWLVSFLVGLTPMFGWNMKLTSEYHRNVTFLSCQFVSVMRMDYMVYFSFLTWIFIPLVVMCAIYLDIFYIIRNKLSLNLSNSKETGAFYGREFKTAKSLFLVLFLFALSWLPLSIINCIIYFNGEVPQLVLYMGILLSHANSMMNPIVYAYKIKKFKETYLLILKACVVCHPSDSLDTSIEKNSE
Experiment: Adenosine receptors antagonism assay (Eurofins), [125I]-AB-MECA radioligand competition
Assay type: binding
Details: [125I]-AB-MECA 0.15 nM, r.t., 120 min; IC50 from dose-response curves; read-out: Potency Class A3AR
pIC50: −log10 of the molar value.
In this section we review reported pIC50 values for a set of molecules.

Worked examples follow.
molecule	pIC50
CC(C)c1nnc2c(NCc3ccccc3)cc(NCCCCCO)nn12	6.00 to 7.00
CC[C@H](CO)Nc1cc(NCc2ccccc2)c2nnc(C(F)(F)F)n2n1	7.00 to 8.00
CC(C)c1nnc2c(NCc3ccccc3)cc(NCc3ccncc3)nn12	6.00 to 7.00

Query: // lookup pIC50 for "CCC(CC)Nc1cc(NCCCc2ccccc2)c2nnc(C(C)C)n2n1"
Result: 8.00 to 9.00

Query: Could you tell me which pIC50 is on file for "CCC(CC)Nc1cc(Nc2cnccn2)c2nnc(C3CC3)n2n1" ?
Result: > 9.00

Query: Given the entry CCC(CC)Nc1cc(NCc2ccccn2)c2nnc(C(C)CC)n2n1 (stereo not drawn) , report its measured pIC50.
Result: 8.00 to 9.00

Query: What does the data say about its pIC50? Entry: "CC[C@H](CO)Nc1cc(NCc2ccccc2)c2nnc(C3CC3)n2n1"
Result: 6.00 to 7.00

Query: What does the record list as pIC50 for "CC(C)c1nnc2c(NCc3ccccc3)cc(NCC3CCOCC3)nn12" ?
Result: 6.00 to 7.00

Query: pIC50 for "CCC(CC)Nc1cc(Nc2ccnnc2)c2nnc(C(C)C)n2n1" ?
Result: 8.00 to 9.00

###

Target: human recombinant A3AR (expressed in HEK-293 cells) (Homo sapiens)
Construct: host or cells: HEK-293 cells
Assay: Adenosine receptors antagonism assay (Eurofins), [125I]-AB-MECA radioligand competition
Format: binding
Conditions: read-out: Potency Class A3AR; [125I]-AB-MECA 0.15 nM, r.t., 120 min; IC50 from dose-response curves
result type: IC50

Here are 4 compounds together with their reported answers.
compound	IC50
CC[C@H](CO)Nc1cc(NCc2ccccn2)c2nnc(C(C)C)n2n1 [compound 169]	10 to 100 nM
CC(C)c1nnc2c(NCc3ccccc3)cc(NCC3CCC3)nn12 [compound 123]	10 to 100 nM
CCC(CC)Nc1cc(NC(=O)Cc2cccnc2)c2nnc(C(C)C)n2n1 [compound 168]	< 1 nM
CC(C)c1nnc2c(NCc3ccccc3)cc(NCC3(C)CCCCC3)nn12 [compound 136]	10 to 100 nM

Next compound, IC50 to be filled in.
Query: Entry CC(C)c1nnc2c(NCc3ccccc3)cc(NC3CCCCC3O)nn12 (racemic) [compound 134] , system human recombinant A3AR (expressed in HEK-293 cells) (Homo sapiens): what IC50 was measured?
Result: 10 to 100 nM

###

Attribute: pIC50
Molecular target: human recombinant A3AR (expressed in HEK-293 cells) (Homo sapiens)
Construct: host or cells: HEK-293 cells
Assay: Adenosine receptors antagonism assay (Eurofins), [125I]-AB-MECA radioligand competition
Format: binding
Settings: [125I]-AB-MECA 0.15 nM, r.t., 120 min; IC50 from dose-response curves; read-out: Potency Class A3AR
pIC50: −log10 of the molar value.

Query: Consider the compound "CC(C)c1nnc2c(NCc3ccccc3)cc(NCc3cnn(C)c3)nn12" and give its measured pIC50.
Result: 7.00 to 8.00

Query: Can you look up the measured pIC50 of "CCC(CC)Nc1cc(NCc2cccc(N)c2)c2nnc(C(C)C)n2n1" for me?
Result: 8.00 to 9.00
